Catalogue of binders with associated pKd
Target: T1, native Ovr110 protein on tumor cells (ZR-75-1, SKBR3, RL95.2, OVCAR3) (human, UniProt Q7Z7D3 25-282)
T1 construct: whole, on cells; Endogenous protein of Ovr110-positive tumor cell lines; also called B7-H4; B7x
T1 sequence (looked up): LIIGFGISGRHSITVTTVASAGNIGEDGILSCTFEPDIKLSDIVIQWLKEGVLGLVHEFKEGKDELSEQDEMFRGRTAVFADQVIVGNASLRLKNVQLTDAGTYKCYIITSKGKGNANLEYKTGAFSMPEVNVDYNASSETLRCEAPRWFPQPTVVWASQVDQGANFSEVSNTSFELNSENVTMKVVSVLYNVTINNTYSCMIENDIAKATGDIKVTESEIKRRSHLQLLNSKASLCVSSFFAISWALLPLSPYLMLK
Assay: flow cytometry titration of fluorescein-labeled MAb on ZR75-1 cells; one-site fit
Notebook: values listed as pKd are -log10 of the concentration (mol/L).

binder	property.measured	result.number
Ovr110.Q11 (antibody, V domains shown, Mouse hybridoma MAb; also called Q11.12.3; Ovr110.Q11.12.3) VH: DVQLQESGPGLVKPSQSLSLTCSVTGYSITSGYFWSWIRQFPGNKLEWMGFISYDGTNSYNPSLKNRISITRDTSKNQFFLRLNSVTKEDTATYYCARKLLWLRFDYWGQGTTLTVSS VL: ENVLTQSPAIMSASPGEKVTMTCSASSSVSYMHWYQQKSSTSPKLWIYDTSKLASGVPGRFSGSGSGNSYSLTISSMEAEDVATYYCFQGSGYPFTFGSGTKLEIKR	pKd	9.13
Ovr110.Q12 (antibody, IgG1, V domains shown, Mouse hybridoma MAb; also called Q12.2; Ovr110.Q12.2) VH: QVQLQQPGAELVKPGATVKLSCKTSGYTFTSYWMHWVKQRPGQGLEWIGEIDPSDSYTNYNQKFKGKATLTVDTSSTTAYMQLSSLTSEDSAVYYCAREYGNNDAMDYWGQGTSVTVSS VL: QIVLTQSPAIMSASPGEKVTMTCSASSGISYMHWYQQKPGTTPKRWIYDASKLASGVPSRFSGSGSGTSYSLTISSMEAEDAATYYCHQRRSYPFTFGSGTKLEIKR	pKd	9.19

Continue with the next binder.
Q: Which pKd is listed for Ovr110.Q27 (antibody, IgG1, V domains shown, Mouse hybridoma MAb; also called Q27.4; Q27.2) VH: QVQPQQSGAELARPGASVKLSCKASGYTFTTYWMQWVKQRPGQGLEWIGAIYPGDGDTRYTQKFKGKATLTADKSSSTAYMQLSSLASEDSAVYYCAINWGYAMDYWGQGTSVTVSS VL: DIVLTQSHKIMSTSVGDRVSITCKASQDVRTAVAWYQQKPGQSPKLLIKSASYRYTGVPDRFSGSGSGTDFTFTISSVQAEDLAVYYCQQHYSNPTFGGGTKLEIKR ?
Ans: 8.32
